Biological target: Sodium/hydrogen exchanger 1 (Homo sapiens, UniProt P19634)
Sequence (P19634 whole entry): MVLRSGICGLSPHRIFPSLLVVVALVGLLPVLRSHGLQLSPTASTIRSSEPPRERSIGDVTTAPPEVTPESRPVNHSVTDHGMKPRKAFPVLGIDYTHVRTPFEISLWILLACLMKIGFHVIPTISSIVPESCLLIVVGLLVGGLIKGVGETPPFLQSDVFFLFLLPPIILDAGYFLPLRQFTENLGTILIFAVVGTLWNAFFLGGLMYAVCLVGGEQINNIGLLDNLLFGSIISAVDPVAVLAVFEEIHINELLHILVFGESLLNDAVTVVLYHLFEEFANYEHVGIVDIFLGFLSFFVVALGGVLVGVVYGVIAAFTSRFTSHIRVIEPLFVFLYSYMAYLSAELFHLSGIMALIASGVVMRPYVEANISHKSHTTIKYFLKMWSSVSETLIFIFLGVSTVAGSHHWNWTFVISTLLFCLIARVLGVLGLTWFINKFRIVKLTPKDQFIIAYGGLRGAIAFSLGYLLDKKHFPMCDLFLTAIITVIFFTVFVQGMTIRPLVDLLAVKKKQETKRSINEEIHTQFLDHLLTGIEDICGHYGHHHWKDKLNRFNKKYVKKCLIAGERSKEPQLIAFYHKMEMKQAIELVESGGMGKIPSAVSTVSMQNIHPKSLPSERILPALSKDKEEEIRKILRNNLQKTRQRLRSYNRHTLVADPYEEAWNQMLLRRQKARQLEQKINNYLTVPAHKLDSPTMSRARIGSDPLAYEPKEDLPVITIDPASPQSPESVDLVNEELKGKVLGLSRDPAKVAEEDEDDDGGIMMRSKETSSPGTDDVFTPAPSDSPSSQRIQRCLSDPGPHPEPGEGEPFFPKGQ
Experiment: Inhibition of human NHE1 expressed in PS120 cells assessed as imposed acidosis
The following compounds are shown together with reported pIC50 values.
// pIC50 is dimensionless: -log10 of concentration (M)

Cc1cc(C)cc(-c2nc(C(=O)N=C(N)N)c(C)[nH]2)c1 ... 5.30
Cc1oc(-c2ccccc2)nc1C(=O)N=C(N)N ... 5.09
CS(=O)(=O)O.Cc1oc(-c2cc(Cl)ccc2Cl)nc1C(=O)N=C(N)N ... 7.14

Given the compound Cc1oc(-c2cc(F)cc(F)c2)nc1C(=O)N=C(N)N , what is its reported pIC50?
5.48

----------
Molecular target: Sodium/hydrogen exchanger 1 (Homo sapiens)
Assay: Inhibition of human NHE1 expressed in PS120 cells assessed as imposed acidosis
Binary call on IC50 with cut-off 3 µM: strictly below means met, and equality or higher means not met.

Take a look at these entries with their results.
Cc1[nH]c(-c2ccccc2)nc1C(=O)N=C(N)N ... not met
Cc1oc(-c2cc(F)ccc2F)nc1C(=O)N=C(N)N ... met
COc1cccc(-c2nc(C(=O)N=C(N)N)c(C)[nH]2)c1OC ... not met
CS(=O)(=O)O.CS(=O)(=O)O.Cc1[nH]c(-c2ccccc2Cl)nc1C(=O)N=C(N)N ... met
Cc1[nH]c(-c2cccc(F)c2)nc1C(=O)N=C(N)N ... not met
Cc1cccc(-c2nc(C(=O)N=C(N)N)c(C)[nH]2)c1 ... not met
Cc1ccc(-c2nc(C(=O)N=C(N)N)c(C)[nH]2)cc1 ... not met
CS(=O)(=O)O.Cc1oc(-c2cc(Cl)cc(Cl)c2)nc1C(=O)N=C(N)N ... met

Dear reviewer, please state whether Cc1[nH]c(-c2cc(F)cc(F)c2)nc1C(=O)N=C(N)N has IC50 strictly beneath 3 µM.
met

Dear reviewer, please state whether Cc1[nH]c(-c2ccc(Cl)cc2)nc1C(=O)N=C(N)N has IC50 strictly beneath 3 µM.
not met
